Data origin, for the record: patent US20250041312A1

# test-summary: SAD study in healthy volunteers: PK in plasma, whole blood, red blood cells
# Assay type: in vivo, human
# test-conditions: human; HV single oral 1400 mg (Cohort 7); red blood cells (calculated conc.); geometric mean
# Experimental: To evaluate the safety and tolerability of single ascending doses of Compound I, 48 healthy volunteers (42 in the fasted state and 6 in the fed state) aged 18 to 55 years old were administered single ascending doses (50 mg to 2200 mg) of Compound I, while 16 healthy volunteers (14 in the fasted state and 2 in the fed state) aged 18 to 55 years old were administered placebo in a double blind, randomized, sequential manner. […]
recorded-metric: AUC(0-inf) (µg·h/mL)
One number for each entry, in µg·h/mL.

For O=Cc1c(O)cccc1OC[C@@H]1COCCN1C(=O)c1cccnc1CCO [Compound I] the compound record lists AUC(0-inf) as 499000

###

# test-summary: SAD study in healthy volunteers: PK in plasma, whole blood, red blood cells
# Format: in vivo, human
# test-conditions: human; HV single oral 200 mg (Cohort 3); whole blood; median
recorded-metric: Tmax
State the result as a value with its unit after it.

Memo: O=Cc1c(O)cccc1OC[C@@H]1COCCN1C(=O)c1cccnc1CCO , reported Tmax: 8 h

###

# test-summary: SAD study in healthy volunteers: PK in plasma, whole blood, red blood cells
# Assay type: in vivo, human
# test-conditions: human, plasma, po, 800 mg, HV single oral 800 mg (Cohort 6); plasma; geometric mean; read-out: t1/2 (converted)
recorded-metric: half-life (days)
Give bare numbers, in days.

Input O=Cc1c(O)cccc1OC[C@@H]1COCCN1C(=O)c1cccnc1CCO [Compound I] . Output half-life: 20.7

###

# test-summary: SAD study in healthy volunteers: PK in plasma, whole blood, red blood cells
# Type: in vivo, human
# test-conditions: human, whole blood, po, 1400 mg, HV single oral 1400 mg (Cohort 7); whole blood; geometric mean; read-out: t1/2 (converted)
recorded-metric: half-life (days)
One number for each entry, in days.

Lab note: measured half-life of O=Cc1c(O)cccc1OC[C@@H]1COCCN1C(=O)c1cccnc1CCO [Compound I] was 27.3

###

# test-summary: SAD study in healthy volunteers: PK in plasma, whole blood, red blood cells
# Format: in vivo, human
# test-conditions: human, plasma, po, 2200 mg, HV single oral 2200 mg (Cohort 8); plasma; geometric mean; read-out: t1/2 (converted)
# Protocol: To evaluate the safety and tolerability of single ascending doses of Compound I, 48 healthy volunteers (42 in the fasted state and 6 in the fed state) aged 18 to 55 years old were administered single ascending doses (50 mg to 2200 mg) of Compound I, while 16 healthy volunteers (14 in the fasted state and 2 in the fed state) aged 18 to 55 years old were administered placebo in a double blind, randomized, sequential manner. […]
recorded-metric: half-life (days)
Answers are plain numbers, in days.

# half-life of O=Cc1c(O)cccc1OC[C@@H]1COCCN1C(=O)c1cccnc1CCO = 22.1

###

# test-summary: SAD study in healthy volunteers: PK in plasma, whole blood, red blood cells
# Type: in vivo, human
# test-conditions: human, red blood cells, po, 200 mg, HV single oral 200 mg (Cohort 3); red blood cells (calculated conc.); geometric mean; read-out: t1/2 (converted)
recorded-metric: half-life (days)
Numbers only, in days.

So for O=Cc1c(O)cccc1OC[C@@H]1COCCN1C(=O)c1cccnc1CCO [Compound I] , the logged half-life turned out to be 28.1
